IC50 tested on AChE from electric eel type VI-S (Electrophorus electricus): recorded values
Returns: string containing the number followed by the unit.

Give its IC50 value. Item: "CC1(C)CC[C@]2(C(=O)O[C@@H]3O[C@H](CO)[C@@H](O)[C@H](O)[C@H]3O)CC[C@]3(C)C(=CC[C@@H]4[C@@]5(C)C[C@@H](O)[C@H](O)C(C)(C)[C@@H]5CC[C@]43C)[C@@H]2[C@@H]1O"
18.8 µM

Now consider "CC1(C)CC[C@]2(C(=O)O)CC[C@]3(C)C(=CC[C@@H]4[C@@]5(C)C[C@@H](O)[C@H](O)C(C)(C)[C@@H]5CC[C@]43C)[C@@H]2[C@@H]1O" .
20.7 µM

Another molecule: CC1(C)CC[C@]2(C(=O)O[C@@H]3O[C@H](CO)[C@@H](O)[C@H](O)[C@H]3O)CC[C@]3(C)C(=CC[C@@H]4[C@@]5(C)C[C@@H](O)[C@H](O)[C@@](C)(CO)[C@@H]5CC[C@]43C)[C@@H]2[C@@H]1O [Arjunglucoside I]
13.2 µM

* * *

Please go through the items and note down their pIC50.
target: AChE from electric eel type VI-S (Electrophorus electricus, UniProt O42275)
Sequence (O42275 24-633): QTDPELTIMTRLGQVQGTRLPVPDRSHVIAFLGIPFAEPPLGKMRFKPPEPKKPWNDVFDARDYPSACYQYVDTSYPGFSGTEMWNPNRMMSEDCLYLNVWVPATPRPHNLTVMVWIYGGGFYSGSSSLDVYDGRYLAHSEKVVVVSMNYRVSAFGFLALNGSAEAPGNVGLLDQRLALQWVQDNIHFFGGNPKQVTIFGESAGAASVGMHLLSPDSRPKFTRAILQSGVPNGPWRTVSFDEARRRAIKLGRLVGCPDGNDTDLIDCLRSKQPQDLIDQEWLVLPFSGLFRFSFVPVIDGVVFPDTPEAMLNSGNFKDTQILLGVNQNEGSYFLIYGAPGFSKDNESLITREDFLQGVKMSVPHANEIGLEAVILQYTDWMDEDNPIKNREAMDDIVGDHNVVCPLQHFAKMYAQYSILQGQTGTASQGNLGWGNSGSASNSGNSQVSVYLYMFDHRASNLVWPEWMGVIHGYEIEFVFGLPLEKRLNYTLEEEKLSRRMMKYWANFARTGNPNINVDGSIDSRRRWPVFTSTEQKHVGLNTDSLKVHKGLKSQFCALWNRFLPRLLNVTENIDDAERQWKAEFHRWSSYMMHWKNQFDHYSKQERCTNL
Please keep in mind that pIC50 is minus log10 of the molar concentration; only the number is needed.

Find the measured pIC50: item CC1(C)CC[C@]2(C(=O)O)CC[C@]3(C)C(=CC[C@@H]4[C@@]5(C)C[C@@H](O)[C@H](O)[C@@](C)(CO)[C@@H]5CC[C@]43C)[C@@H]2C1 [Arjunolic acid] , target or system AChE from electric eel type VI-S (Electrophorus electricus, UniProt O42275).
4.79

Same for CC1(C)CC[C@]2(C(=O)O)CC[C@]3(C)C(=CC[C@@H]4[C@@]5(C)C[C@@H](O)[C@H](O)[C@@](C)(CO)[C@@H]5CC[C@]43C)[C@@H]2[C@@H]1O [Arjungenin]
4.71
